biological target: human Nav1.1 (Homo sapiens, UniProt P35498); construct: host or cells: HEK293; experiment: Amplification of Nav1.1-derived voltage-gated sodium current (Nav1.1 current), automated patch clamp (Test 1); type: cell-based; settings: Concentration for evaluation 10 μM; HEK293 cell line stably expressing human Nav1.1
MEASURED_QUANTITY: Nav1.1 current amplification rate (%)
I only need the number, in %, no unit after it.

For orientation, consider the following solved cases.
CC1CCN(c2ccc(=O)n(CC(=O)Nc3ccc4c(c3)ncn4C)n2)CC1 [Example 98] = 15
CC1CCN(c2ccc(=O)n(CC(=O)Nc3ccc(C(=O)N4CCCC4)cc3)n2)CC1 [Example 79] = 165
O=C(Cn1nc(C2=CCC(C(F)(F)F)CC2)ccc1=O)N1CCN(c2cncc(F)c2)CC1 (centres unmarked) [Example 487] = 190
O=C(Cn1nc(-c2cc(Cl)cs2)ccc1=O)Nc1ccc2ocnc2c1 [Example 454] = 157
CN(c1cnc2cnn(CC(=O)Nc3cc4cccnc4cn3)c2n1)C1CC1 [Example 729] = 55

Lab note: molecule CC1CCN(c2ccc(=O)n(CC(=O)Nc3ccnc(C#N)c3)n2)CC1 [Example 53] tested on human Nav1.1 (Homo sapiens, UniProt P35498); recorded Nav1.1 current amplification rate (%) was 161

Lab note: molecule O=C(Cn1nc(C2=CCC(C(F)(F)F)CC2)ccc1=O)Nc1ccc2ocnc2c1 (racemic) [Example 446] tested on human Nav1.1 (Homo sapiens, UniProt P35498); recorded Nav1.1 current amplification rate (%) was 333

====

target: human Nav1.1 (Homo sapiens); construct: host or cells: HEK293; assay: Amplification of Nav1.1-derived voltage-gated sodium current (Nav1.1 current), automated patch clamp (Test 1); type: cell-based; details: concentration for evaluation 1 μM; HEK293 stably expressing human Nav1.1
MEASURED_QUANTITY: Nav1.1 current amplification rate (%)
I only need the number, in %, no unit after it.

For orientation, consider the following solved cases.
O=C(Cn1ncc2ccc(C3=CCCCO3)nc21)Nc1ccn2ccnc2c1 [Example 868] = 19
CC1CC=C(c2ncc3cnn(CC(=O)Nc4ccc5cncnc5c4)c3n2)CC1 (stereo not shown) [Example 805] = 373
CC1CCN(c2ccc3cnn(CC(=O)Nc4ccc5ocnc5c4)c3n2)CC1 [Example 876] = 98

# context switch: different molecule, same Nav1.1 current amplification rate (%)
Nav1.1 current amplification rate (%) measured on CN(c1ccc2cnn(CC(=O)Nc3ccn4ncnc4c3)c2n1)C1CCCC1 [Example 862] = 97

====

# Nav1.1 current amplification rate (%) per entry
target: human Nav1.1 (Homo sapiens, UniProt P35498); construct: host or cells: HEK293; test: Amplification of Nav1.1-derived voltage-gated sodium current (Nav1.1 current), automated patch clamp (Test 1); assay type: cell-based; conditions: Concentration for evaluation 3 μM; HEK293 cell line stably expressing human Nav1.1
I only need the number, in %, no unit after it.

Cc1cccc(F)c1Oc1ncc2cnn(CC(=O)Nc3ccn4ncnc4c3)c2n1 [Example 783] = 11
CC1CC=C(c2ccc(=O)n(CC(=O)N3CCc4cc(C5CN(C6COC6)C5)ccc43)n2)CC1 (stereo not shown) [Example 318] = 77
CC1CC=C(c2ccc(=O)n(CC(=O)N3CC=C(c4ccccc4)CC3)n2)CC1 (stereo not shown) [Example 257] = 45
CC1CC=C(c2ccc(=O)n(CC(=O)N3CCc4c(CN5CCOCC5)cccc43)n2)CC1 (stereo not shown) [Example 270] = 481
CC(C)c1ccc(NC(=O)Cn2ncc3ncc(N(C)C4CC4)nc32)cn1 [Example 708] = 25
CC1CC=C(c2ccc(=O)n(CC(=O)Nc3ccc4oc(CN(C)C)nc4c3)n2)CC1 (stereo not shown) [Example 324] = 50
CN(c1cnc2cnn(CC(=O)N3CCN(c4cccnc4)CC3)c2n1)C1CCCC1 [Example 673] = 20
CC1CC=C(c2ccc(=O)n(CC(=O)N3CCc4c(C5=CCN(C)C5)cccc43)n2)CC1 (stereo not shown) [Example 267] = 231

Nav1.1 current amplification rate (%) measured on CC1CC=C(c2ccc(=O)n(CC(=O)N3CCc4c(-c5ccn(C)n5)cccc43)n2)CC1 (stereo not shown) [Example 252] = 254

Nav1.1 current amplification rate (%) measured on CC1CC=C(c2ccc(=O)n(CC(=O)N3CCc4c(OCC(C)(C)O)cccc43)n2)CC1 (stereo not shown) [Example 307] = 320

Nav1.1 current amplification rate (%) measured on CC1CC=C(c2ccc(=O)n(CC(=O)N3CCc4c(-c5cccnc5)cccc43)n2)CC1 (stereo not shown) [Example 248] = 392

Nav1.1 current amplification rate (%) measured on CC1(C)CC=C(c2ccc(=O)n(CC(=O)N3CCc4c(C5CN(C(=O)CO)C5)cccc43)n2)CC1 [Example 437] = 582

Nav1.1 current amplification rate (%) measured on CC1CC=C(c2ccc(=O)n(CC(=O)N3CCc4c(C5=CCNC5)cccc43)n2)CC1 (stereo not shown) [Example 265] = 110

Nav1.1 current amplification rate (%) measured on CC1CC=C(c2ccc(=O)n(CC(=O)N3CCc4c(-c5cn[nH]c5)cccc43)n2)CC1 (stereo not shown) [Example 254] = 309

Nav1.1 current amplification rate (%) measured on CC1CC=C(c2ccc(=O)n(CC(=O)Nc3ccc4oc(CN5CCC5)nc4c3)n2)CC1 (stereo not shown) [Example 333] = 25

Nav1.1 current amplification rate (%) measured on COCC1(N(C)c2cnc3cnn(CC(=O)Nc4ccn5ncnc5c4)c3n2)CC1 [Example 629] = 15

Nav1.1 current amplification rate (%) measured on CC1CC=C(c2ccc(=O)n(CC(=O)Nc3ccn4c(C5CC5)cnc4c3)n2)CC1 (stereo not shown) [Example 335] = 187

Nav1.1 current amplification rate (%) measured on CC1CC=C(c2ccc(=O)n(CC(=O)N3CCc4c(C5CN(C6COC6)C5)cccc43)n2)CC1 (stereo not shown) [Example 301] = 410

Nav1.1 current amplification rate (%) measured on CC1CC=C(c2ccc(=O)n(CC(=O)N3CCc4c(C5CN(C6CCOC6)C5)cccc43)n2)CC1 (stereo not shown) [Example 305] = 314

====

target: human Nav1.1 (Homo sapiens, UniProt P35498); construct: host or cells: HEK293; experiment: Amplification of Nav1.1-derived voltage-gated sodium current (Nav1.1 current), automated patch clamp (Test 1); assay type: cell-based; conditions: concentration for evaluation 1 μM; HEK293 stably expressing human Nav1.1
# Nav1.1 current amplification rate (%) per entry
I only need the number, in %, no unit after it.

For orientation, consider the following solved cases.
CN(CC1CCC1)c1ccc2cnn(CC(=O)Nc3ccc4ncnn4c3)c2n1 [Example 873] = 89
O=C(Cn1ncc2cnc(N3CCC4(CC4)C(F)(F)C3)nc21)Nc1ccc2ncnn2c1 [Example 813] = 105
CN(CC1(C)CC1)c1ncc2cnn(CC(=O)Nc3ccc4ncnn4c3)c2n1 [Example 822] = 42

Nav1.1 current amplification rate (%) measured on O=C(Cn1ncc2cnc(N3CCC4(CC4)C(F)(F)C3)nc21)Nc1ccc(-n2ccnc2)nc1 [Example 824] = 240

Nav1.1 current amplification rate (%) measured on CC1CCN(c2ccc3cnn(CC(=O)Nc4ccn5ccnc5c4)c3n2)CC1 [Example 870] = 120

Nav1.1 current amplification rate (%) measured on O=C(Cn1ncc2cnc(N3CCC4(CCC4)CC3)nc21)Nc1ccc2cncnc2c1 [Example 808] = 226

Nav1.1 current amplification rate (%) measured on CC1(C)CCN(c2ccc3cnn(CC(=O)Nc4ccn5ncnc5c4)c3n2)C1 [Example 857] = 18

Nav1.1 current amplification rate (%) measured on O=C(Cn1ncc2ccc(N3CCC4(CC3)CC4)nc21)Nc1ccn2ncnc2c1 [Example 855] = 93

Nav1.1 current amplification rate (%) measured on CN(c1ccc2cnn(CC(=O)Nc3ccc4ncnn4c3)c2n1)C1CCCC1 [Example 875] = 43

Nav1.1 current amplification rate (%) measured on CC1CC=C(c2ccc3cnn(CC(=O)Nc4ccn5ncnc5c4)c3n2)CC1 (stereo not drawn) [Example 852] = 111

Nav1.1 current amplification rate (%) measured on N#Cc1ccc(NC(=O)Cn2ncc3cnc(N4CCC5(CC5)C(F)(F)C4)nc32)cn1 [Example 823] = 226

Nav1.1 current amplification rate (%) measured on CC1CC=C(c2ccc3cnn(CC(=O)Nc4ccn5ccnc5c4)c3n2)CC1 (stereo not drawn) [Example 864] = 160

====

target: human Nav1.1 (Homo sapiens); construct: host or cells: HEK293; assay: Amplification of Nav1.1-derived voltage-gated sodium current (Nav1.1 current), automated patch clamp (Test 1); type: cell-based; settings: Concentration for evaluation 10 μM; HEK293 cell line stably expressing human Nav1.1
# Nav1.1 current amplification rate (%) per entry
I only need the number, in %, no unit after it.

For orientation, consider the following solved cases.
N#Cc1ccc(NC(=O)Cn2nc(N3CCCC(C(F)(F)F)C3)ccc2=O)cc1 (stereo not drawn) = 59
CC(C)(C)C1CCN(c2ccc(=O)n(CC(=O)Nc3ccc(C#N)cc3)n2)CC1 = 35
N#Cc1ccc(NC(=O)Cn2nc(N3CCCCCC3)ccc2=O)cc1 = 205
CC1CCN(c2ccc(=O)n(CC(=O)Nc3ccc4nccn4c3)n2)CC1 = 31

Nav1.1 current amplification rate (%) measured on O=C(Cn1nc(C2=CCC(F)(F)CC2)ccc1=O)N1CCN(c2cncc(F)c2)CC1 = 29

Nav1.1 current amplification rate (%) measured on CC1(C)CC=C(c2ccc(=O)n(CC(=O)N3CCN(c4cncc(F)c4)CC3)n2)C1 = 175

Nav1.1 current amplification rate (%) measured on COc1cc(C2=CCC(C(F)(F)F)CC2)nn(CC(=O)N2CCN(c3cncc(F)c3)CC2)c1=O (stereo not drawn) = 219

Nav1.1 current amplification rate (%) measured on CC1CC=C(c2ccc(=O)n(CC(=O)N3CCN(c4cccnc4)CC3)n2)CC1 (stereo not drawn) = 343

Nav1.1 current amplification rate (%) measured on CC1(C)CC=C(c2ccc(=O)n(CC(=O)N3CCC4(CCOCC4)CC3)n2)CC1 = 30

Nav1.1 current amplification rate (%) measured on O=C(Cn1nc(C2=CCCC2)ccc1=O)N1CCc2c(N3CCOCC3)cccc21 = 128

Nav1.1 current amplification rate (%) measured on CC1CC=C(c2ccc(=O)n(CC(=O)N3CC=C(c4cncc(F)c4)CC3)n2)CC1 (stereo not drawn) = 273

Nav1.1 current amplification rate (%) measured on COc1cc(C2=CCC(C(F)(F)F)CC2)nn(CC(=O)N2CCc3c(N4CCOCC4)cccc32)c1=O (stereo not drawn) = 235

Nav1.1 current amplification rate (%) measured on CC1CCN(c2ccc(=O)n(CC(=O)Nc3cccc(-c4cnco4)c3)n2)CC1 = 93

Nav1.1 current amplification rate (%) measured on CC1(C)CC=C(c2ccc(=O)n(CC(=O)N3CCc4c(N5CCOCC5)cccc43)n2)C1 = 633

Nav1.1 current amplification rate (%) measured on Cc1ccc(-c2ccc(=O)n(CC(=O)Nc3ccc4ocnc4c3)n2)cn1 = 10

Nav1.1 current amplification rate (%) measured on CC1CC=C(c2ccc(=O)n(CC(=O)N3CCN(c4ccncc4)CC3)n2)CC1 (stereo not drawn) = 60
